# experimental.details: AUC (0 to infinity) in ICR mouse at 25 mg/kg, ip by LC-tandem mass spectrometry analysis
# Assay type: ADME, organism-based
# Set-up: time infinity, route intraperitoneal, dose 25 mg/kg
# reported.conditions: in vivo
readout.label: AUC(0-inf) (ng·h/mL)
Field format: number, assumed ng·h/mL, no unit text.

input: Record request: AUC(0-inf) value, item O=C(CCCCCCCCCCC(=O)N1CCN(C(=O)c2cc(Cc3n[nH]c(=O)c4ccccc34)ccc2F)CC1)NCCNc1cccc2c1C(=O)N(C1CCC(=O)NC1=O)C2=O (stereo unspecified)
output: 5360

====

# experimental.details: Cmax in ICR mouse at 25 mg/kg, ip by LC-tandem mass spectrometry analysis
# Format: ADME, organism-based
# Design: route intraperitoneal, dose 25 mg/kg
# reported.conditions: in vivo
readout.label: Cmax (ng/mL)
Field format: number, assumed ng/mL, no unit text.

input: Record request: Cmax value, item O=C(CCCCCCCCCCC(=O)N1CCN(C(=O)c2cc(Cc3n[nH]c(=O)c4ccccc34)ccc2F)CC1)NCCNc1cccc2c1C(=O)N(C1CCC(=O)NC1=O)C2=O (stereo unspecified)
output: 1840
